Cited source: patent US11033539B2

Assayed System: UniProt P08173
Sequence (P08173 whole entry): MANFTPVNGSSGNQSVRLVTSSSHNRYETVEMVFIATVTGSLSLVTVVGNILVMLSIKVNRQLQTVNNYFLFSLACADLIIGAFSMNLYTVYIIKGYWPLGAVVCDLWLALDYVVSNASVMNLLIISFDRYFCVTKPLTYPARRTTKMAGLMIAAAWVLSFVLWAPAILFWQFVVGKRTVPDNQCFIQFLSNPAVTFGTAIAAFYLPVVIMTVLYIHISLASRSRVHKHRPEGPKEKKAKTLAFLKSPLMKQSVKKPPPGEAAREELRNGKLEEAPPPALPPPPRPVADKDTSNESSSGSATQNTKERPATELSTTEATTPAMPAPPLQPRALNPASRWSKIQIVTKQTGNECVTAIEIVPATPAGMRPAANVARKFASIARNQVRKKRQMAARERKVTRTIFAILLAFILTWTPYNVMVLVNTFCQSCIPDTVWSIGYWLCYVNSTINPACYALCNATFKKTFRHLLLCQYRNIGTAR
Test: Radioligand (tritiated N-methylscopolamine) binding assay, M4
Assay Setup: Ki against the M4 receptor; membranes from CHO cells expressing human M4; tritiated N-methylscopolamine 1.5 nM; read-out: Ki
pKi: −log10 of the molar value.
Please go through the items and note down their pKi.

Here is how some compounds turned out for pKi.
{"Compound": "Cc1c(C(=O)NCCC2CCN(CC3CCCCC3)CC2)cnc2cc(-c3cccc(C(F)(F)F)c3)nn12", "Reported": "6.00 to 7.00"}
{"Compound": "O=C(NCCC1CCN(Cc2ccccc2)CC1)N1CCN(c2ccc(C(F)(F)F)cc2)CC1", "Reported": "> 8.00"}
{"Compound": "C[C@@H]1CN(c2nccc(C#N)n2)CCN1C(=O)NCCC1CCN(Cc2ccccc2)CC1", "Reported": "7.00 to 8.00"}
{"Compound": "Cc1c(C(=O)NCCC2CCN(Cc3ccccc3)CC2)cnc2cc(-c3ccc(F)cc3F)nn12", "Reported": "> 8.00"}
{"Compound": "O=C(NCCC1CCN(Cc2ccccc2)CC1)C1CCN(c2ccc(C(F)(F)F)cc2)CC1", "Reported": "> 8.00"}

Each of the following entries comes with a recorded value; kindly state pKi for each.
1. CN(CCC1CC[N+](C)(Cc2ccccc2)CC1)C(=O)C1CCN(c2ccc(OC(F)(F)F)cc2)CC1 (centres unmarked)
2. C[C@@H]1CN(c2ncc(C#N)cn2)C[C@H](C)N1C(=O)NCCC1CCN(Cc2ccc3occc3c2)CC1
3. Cc1c(C(=O)NCCC2CCN(Cc3ccccc3O)CC2)cnc2cc(-c3ccccc3)nn12
4. O=C(NCCC1CCN(Cc2ccccc2)CC1)C1CCN(c2ccc(C(F)(F)F)cn2)CC1
5. CC1CN(c2ccccc2OC(F)(F)F)CCC1C(=O)NCCC1CCN(Cc2ccccc2)CC1 (centres unmarked)
6. C[C@H]1CN(c2ncc(Cl)cn2)CCC1C(=O)NCCC1CCN(Cc2ccccc2)CC1 (some centres unmarked)
7. COC1(C(=O)NCCC2CCN(Cc3ccccc3)CC2)CCN(c2ccccc2OC(F)(F)F)CC1

Ans:
["6.00 to 7.00", "7.00 to 8.00", "6.00 to 7.00", "7.00 to 8.00", "6.00 to 7.00", "> 8.00", "6.00 to 7.00"]

Each of the following entries comes with a recorded value; kindly state pKi for each.
1. N#Cc1cc2ccccc2nc1-c1cc(C(=O)NCCC2CCN(Cc3ccccc3)CC2)ccc1Cl
2. C[C@@H]1CN(c2cc(F)ccc2F)CCN1C(=O)NCCC1CCN(Cc2ccccc2)CC1
3. C[C@@H]1CN(c2cnc(C(F)(F)F)nc2)C[C@H](C)N1C(=O)NCCC1CCN(Cc2ccc(O)cc2)CC1

Ans:
1: 6.00 to 7.00; 2: 7.00 to 8.00; 3: 7.00 to 8.00

Each of the following entries comes with a recorded value; kindly state pKi for each.
1. C[C@H]1CN(c2ncc(C#N)cn2)CCC1C(=O)NCCC1CCN(Cc2ccccc2)CC1 (some centres unmarked)
2. C[C@@H]1CN(c2cccc(C#N)c2)CCN1C(=O)NCCC1CCN(Cc2ccccc2)CC1

Ans:
7.00 to 8.00
> 8.00
